The following compounds are listed with their measured IC50 values.
- target-desc: recombinant human MMP-13 (Homo sapiens, UniProt P45452)
- test-summary: biochemical
- protocol-conditions: Inhibition Table A; read-out: MMP-13 IC50
Reply with just the number (in nM).

Example compounds with recorded IC50:
>>> test_result("O=C(NO)/C(=C\\c1ccccc1)S(=O)(=O)c1ccc(Oc2ccccc2)cc1")
4800
>>> test_result("CN1CCC(C(=O)NO)(S(=O)(=O)c2ccc(Oc3ccccc3)cc2)CC1")
0.1
>>> test_result("O=C(NO)C1(S(=O)(=O)c2ccc(N3CCC(c4ccccc4)CC3)cc2)CCOCC1")
6

// next entry
In plain terms, O=C(NO)C1(S(=O)(=O)c2ccc(Sc3ccc(Cl)cc3)cc2)CCOCC1 has a documented IC50 of 3
